The reader will find reported pIC50 values listed item by item below.
# system name: Recombinant human cathepsin A (Homo sapiens)
# Construct: Recombinant human cathepsin A (residues 29-480, with a C-terminal 10-His tag); 10-His (C); purchased R&D Systems 1049-SE
# assay info: Cathepsin A inhibitory activity
# Type: biochemical
# experimental setup: read-out: Activity (2): Cathepsin A inhibitory activity, IC50 class
pIC50: −log10 of the molar value.

Recorded results for 3 compounds are shown here.
| compound | system name | test value |
| --- | --- | --- |
| O=C(O)CC(NC(=O)c1cc(O)n(-c2ccccc2F)n1)c1ccc(-c2ccc(F)cc2)cc1 (stereo not shown) [Example 126] | Recombinant human cathepsin A (Homo sapiens) | > 7.00 |
| Cc1cccc(C(CC(=O)O)NC(=O)c2cc(O)n(-c3ccc(F)cc3)n2)c1C (stereo not shown) [Example 358] | Recombinant human cathepsin A (Homo sapiens) | 6.00 to 7.00 |
| O=C(O)C[C@H](NC(=O)c1cc(O)n(-c2cccc(F)c2)n1)c1ccccc1Br [Example 302] | Recombinant human cathepsin A (Homo sapiens) | 6.00 to 7.00 |

Measured pIC50 for this entry COc1ccccc1[C@H](CC(=O)O)NC(=O)c1cc(OC[C@@](C)(O)C(C)(C)C)n(-c2ccccc2F)n1 [Example 810] on Recombinant human cathepsin A (Homo sapiens): > 7.00

pIC50 for Recombinant human cathepsin A (Homo sapiens) with input CC(C)(C)[C@](C)(O)COc1cc(C(=O)N[C@@H](CC(=O)O)c2ccccc2C(F)(F)F)nn1-c1ccccc1F [Example 799] equals > 7.00

Reported Recombinant human cathepsin A (Homo sapiens) pIC50 for item O=C(O)CC(NC(=O)c1cc(O)n(-c2cccc(F)c2)n1)c1cccc2c1OCO2 (stereo not shown) [Example 300] was 6.00 to 7.00

* * *

# system name: Recombinant human cathepsin A (Homo sapiens)
# Construct: Recombinant human cathepsin A (residues 29-480, with a C-terminal 10-His tag); 10-His (C); purchased R&D Systems 1049-SE
# Sequence (P10619 29-312 limits assumed): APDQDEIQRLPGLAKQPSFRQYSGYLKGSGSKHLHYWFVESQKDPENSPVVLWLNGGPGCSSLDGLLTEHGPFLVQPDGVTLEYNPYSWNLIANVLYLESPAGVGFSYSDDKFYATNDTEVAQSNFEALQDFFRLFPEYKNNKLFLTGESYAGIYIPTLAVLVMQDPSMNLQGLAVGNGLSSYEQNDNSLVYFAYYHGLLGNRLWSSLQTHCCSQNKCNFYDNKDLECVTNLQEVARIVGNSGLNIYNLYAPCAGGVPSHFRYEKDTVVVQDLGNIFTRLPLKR
# Sequence (P10619 327-480 limits assumed): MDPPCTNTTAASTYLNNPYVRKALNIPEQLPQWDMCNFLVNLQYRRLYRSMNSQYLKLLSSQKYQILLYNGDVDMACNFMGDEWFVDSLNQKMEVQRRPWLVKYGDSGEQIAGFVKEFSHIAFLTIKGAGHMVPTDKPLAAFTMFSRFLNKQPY
# assay info: Cathepsin A inhibitory activity
# Assay type: biochemical
# experimental setup: read-out: Activity (2): Cathepsin A inhibitory activity, IC50 class
Below, each entry is listed alongside its reported IC50.

Entry COc1ccc(Cl)cc1C(CC(=O)O)NC(=O)c1cc(O)n(-c2ccc(F)cc2)n1 (centres unmarked) ; IC50 = 0.1 to 1 µM
